species: Sus scrofa; assay: Inhibition of porcine heart Succinate-cytochrome c reductase complex 2 by measuring decrease in DCIP at 10 uM relative to control; format: tissue-based
Please respond with reported inhibition for every item in the list.
Numbers only, in %.

Some compounds with known inhibition results, for comparison:
{"columns": ["SMILES_STR", "UNIT_SPEC", "inhibition"],
 "data": [
  ["COC(=O)NC/C=C\\c1nc(C(=O)OCc2cccc3c2c(Cl)cn3Cc2ccc(Br)cc2)co1", "%", 14],
  ["COC(=O)NC/C=C\\c1nc(C(=O)OCc2cccc3c2c(Cl)cn3Cc2cccc(C)c2)co1", "%", 49],
  ["C#CCn1cc(Cl)c2c(COC(=O)c3coc(/C=C\\CNC(=O)OC)n3)cccc21", "%", 25]
]}

Give its inhibition value. Item: COC(=O)NC/C=C\c1nc(C(=O)OCc2cccc3[nH]cc(Cl)c23)co1
12

Values compiled from ChEMBL document CHEMBL4725267.
